Listed below: pIC50 values for each entry.
Target Or System: p110δ/p85α (Homo sapiens (Human), UniProt O00329)
Sequence (O00329 whole entry, one chain of several): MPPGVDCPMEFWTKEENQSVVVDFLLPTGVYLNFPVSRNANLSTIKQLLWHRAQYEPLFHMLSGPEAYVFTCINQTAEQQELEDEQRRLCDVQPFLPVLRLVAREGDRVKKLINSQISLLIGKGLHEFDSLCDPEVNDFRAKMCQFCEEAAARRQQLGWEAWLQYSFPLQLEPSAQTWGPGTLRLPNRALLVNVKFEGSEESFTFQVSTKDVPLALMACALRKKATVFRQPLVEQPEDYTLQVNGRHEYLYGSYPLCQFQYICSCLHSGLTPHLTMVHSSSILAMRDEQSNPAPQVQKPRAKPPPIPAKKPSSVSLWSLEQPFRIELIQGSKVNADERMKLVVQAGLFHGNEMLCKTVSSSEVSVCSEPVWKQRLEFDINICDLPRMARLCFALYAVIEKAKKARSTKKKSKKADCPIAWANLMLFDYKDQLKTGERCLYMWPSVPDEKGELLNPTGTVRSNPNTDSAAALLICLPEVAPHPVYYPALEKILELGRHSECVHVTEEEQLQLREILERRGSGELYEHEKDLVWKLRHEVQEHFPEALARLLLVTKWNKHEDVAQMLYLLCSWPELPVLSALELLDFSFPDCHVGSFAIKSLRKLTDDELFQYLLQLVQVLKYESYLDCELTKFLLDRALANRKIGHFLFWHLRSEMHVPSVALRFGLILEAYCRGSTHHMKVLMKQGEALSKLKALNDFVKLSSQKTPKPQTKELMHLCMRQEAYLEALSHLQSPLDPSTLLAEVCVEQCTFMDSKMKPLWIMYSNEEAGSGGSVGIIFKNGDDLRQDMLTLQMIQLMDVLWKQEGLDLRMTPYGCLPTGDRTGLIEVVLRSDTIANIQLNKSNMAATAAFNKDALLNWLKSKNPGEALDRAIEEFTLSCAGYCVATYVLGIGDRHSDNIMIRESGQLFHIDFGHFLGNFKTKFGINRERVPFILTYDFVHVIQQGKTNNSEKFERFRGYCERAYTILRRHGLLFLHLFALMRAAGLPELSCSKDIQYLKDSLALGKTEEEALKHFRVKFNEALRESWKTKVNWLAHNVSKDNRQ
Procedure Summary: PI 3-Kinase (human) HTRF assay, p110δ/p85α
Type: biochemical
Run Conditions: read-out: PI3K δ IC50
pIC50: −log10 of the molar value.

Worked examples follow.
>>> print(df.to_string())
                                   molecule  property  endpoint_value
0  Nc1nc2cc(-c3ccc4ncc(C(=O)NC5CC5)n4c3)ccc2o1     pIC50          > 6.00
1  Nc1nc2cc(-c3ccc4ncc(N5CCC(N6CCOCC6)CC5)nc4c3)ccc2o1     pIC50          > 6.00
2  CN1CCN(c2ccnc3ccc(-c4ccc5oc(N)nc5c4)cc23)CC1     pIC50          > 5.00
3  Nc1nc2ccc(-c3ccc4ncc(C(=O)N5CCOCC5)n4c3)cc2s1     pIC50          > 5.00
4  CN1CCN(c2ccc(-c3cnc4ccc(-c5ccc6oc(N)nc6c5)cn34)cn2)CC1     pIC50          > 6.00

Which measured pIC50 value corresponds to Nc1nc2cc(-c3ccc4ncc(-c5cn[nH]c5)n4c3)ccc2o1 ?
> 7.00

And for CC1CN(c2cnc3ccc(-c4ccc5oc(N)nc5c4)cc3n2)CCO1 (stereo not drawn) ?
> 5.00

And for Nc1nc2cc(-c3cn4c(-c5ccncc5)cnc4cn3)ccc2o1 ?
> 5.00

And for CN1CCN(c2ncnc3ccc(-c4ccc5oc(N)nc5c4)cc23)CC1 ?
> 5.00

* * *

Target Or System: p110α/p85α (Homo sapiens (Human), UniProt P42336)
Sequence (P42336 whole entry): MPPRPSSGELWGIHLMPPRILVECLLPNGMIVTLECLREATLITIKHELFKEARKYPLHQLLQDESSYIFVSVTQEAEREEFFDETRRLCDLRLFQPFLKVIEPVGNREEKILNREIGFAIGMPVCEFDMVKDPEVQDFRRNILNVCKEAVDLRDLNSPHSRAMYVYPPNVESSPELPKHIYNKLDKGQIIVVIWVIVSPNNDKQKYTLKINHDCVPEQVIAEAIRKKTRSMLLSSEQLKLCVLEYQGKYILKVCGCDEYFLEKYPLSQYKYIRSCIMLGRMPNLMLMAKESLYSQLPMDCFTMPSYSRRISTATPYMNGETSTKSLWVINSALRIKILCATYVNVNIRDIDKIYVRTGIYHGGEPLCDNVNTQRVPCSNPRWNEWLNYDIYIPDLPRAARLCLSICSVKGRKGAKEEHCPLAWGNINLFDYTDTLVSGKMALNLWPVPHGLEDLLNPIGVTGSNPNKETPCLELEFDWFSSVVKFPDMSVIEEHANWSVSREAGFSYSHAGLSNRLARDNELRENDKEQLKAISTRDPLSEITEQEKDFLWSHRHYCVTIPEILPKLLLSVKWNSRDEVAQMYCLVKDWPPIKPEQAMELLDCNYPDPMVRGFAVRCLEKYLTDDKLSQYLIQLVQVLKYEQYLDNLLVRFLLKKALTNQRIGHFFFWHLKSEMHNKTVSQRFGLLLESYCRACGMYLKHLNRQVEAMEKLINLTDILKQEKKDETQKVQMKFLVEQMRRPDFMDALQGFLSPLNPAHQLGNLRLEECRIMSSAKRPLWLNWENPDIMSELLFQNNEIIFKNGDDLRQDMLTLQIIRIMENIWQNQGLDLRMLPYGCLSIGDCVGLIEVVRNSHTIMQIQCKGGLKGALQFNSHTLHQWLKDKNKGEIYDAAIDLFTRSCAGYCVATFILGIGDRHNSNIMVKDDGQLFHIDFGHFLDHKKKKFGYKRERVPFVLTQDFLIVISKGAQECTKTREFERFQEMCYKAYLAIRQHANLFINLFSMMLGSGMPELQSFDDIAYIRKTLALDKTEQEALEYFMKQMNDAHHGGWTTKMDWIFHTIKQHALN
Sequence (P27986 whole entry partner): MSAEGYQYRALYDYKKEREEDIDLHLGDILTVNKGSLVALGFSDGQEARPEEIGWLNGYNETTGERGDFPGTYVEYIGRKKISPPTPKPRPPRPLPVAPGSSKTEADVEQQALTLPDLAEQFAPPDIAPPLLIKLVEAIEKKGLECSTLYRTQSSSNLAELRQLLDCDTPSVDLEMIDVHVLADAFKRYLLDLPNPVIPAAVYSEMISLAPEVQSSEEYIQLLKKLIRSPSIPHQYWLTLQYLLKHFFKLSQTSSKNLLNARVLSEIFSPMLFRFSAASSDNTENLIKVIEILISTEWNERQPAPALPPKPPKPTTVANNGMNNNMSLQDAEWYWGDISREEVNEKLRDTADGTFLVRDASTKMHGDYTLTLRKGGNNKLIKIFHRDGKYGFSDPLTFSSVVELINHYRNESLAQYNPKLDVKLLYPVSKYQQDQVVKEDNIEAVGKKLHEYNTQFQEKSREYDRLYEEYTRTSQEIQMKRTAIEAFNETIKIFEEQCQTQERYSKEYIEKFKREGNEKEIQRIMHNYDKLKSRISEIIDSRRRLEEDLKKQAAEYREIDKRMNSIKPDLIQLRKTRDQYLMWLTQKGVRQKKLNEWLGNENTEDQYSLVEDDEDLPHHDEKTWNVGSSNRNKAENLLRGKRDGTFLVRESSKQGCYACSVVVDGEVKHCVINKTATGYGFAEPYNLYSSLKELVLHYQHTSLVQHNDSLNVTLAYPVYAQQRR
Procedure Summary: PI 3-Kinase (human) HTRF assay, p110α/p85α
Format: biochemical
Run Conditions: in vitro; read-out: PI3K α IC50
Listed below: IC50 values for each entry.

Which measured IC50 value corresponds to C[C@H]1CN(C2CN(c3cnc4ccc(-c5ccc6oc(N)nc6c5)cc4n3)C2)CCN1 ?
< 100 nM

And for CC(=O)Nc1ncc(-c2ccc3oc(N)nc3c2)s1 ?
< 10000 nM

And for Nc1nc2cc(-c3ccc4ncc(C(=O)N5CC(O)C5)n4c3)ccc2o1 ?
< 100 nM

And for CC(C)[C@H](N)C(=O)N1CCN(c2cnc3ccc(-c4ccc5oc(N)nc5c4)cc3n2)CC1 ?
< 100 nM

And for Nc1nc2cc(-c3ccc4nnc(-c5cccnc5)n4c3)ccc2o1 ?
< 10000 nM

And for NC(=O)[C@@H]1CCCN1C(=O)c1cnc2ccc(-c3ccc4oc(N)nc4c3)cn12 ?
< 1000 nM

And for CC(=O)N1CCC(Nc2ncnc3ccc(-c4ccc5oc(N)nc5c4)nc23)CC1 ?
< 100 nM

And for Nc1nc2cc(-c3ccc4ncn(C5CCCC5)c(=O)c4c3)ccc2o1 ?
< 10000 nM

* * *

Target Or System: p110δ/p85α (Homo sapiens (Human))
Procedure Summary: PI 3-Kinase (human) HTRF assay, p110δ/p85α
Format: biochemical
Run Conditions: in vitro; read-out: PI3K δ IC50
Listed below: IC50 values for each entry.

Worked examples follow.
                                   compound                   target_or_system  endpoint_value
0  Nc1nc2cc(-c3ccc4ncc(N5CC(n6ccnc6)C5)nc4c3)ccc2o1  p110δ/p85α (Homo sapiens (Human))         < 10 µM
1  CCN(CC)CCNC(=O)c1cnc2ccc(-c3ccc4oc(N)nc4c3)cn12  p110δ/p85α (Homo sapiens (Human))          < 1 µM

Requested read-out IC50, target or system p110δ/p85α (Homo sapiens (Human)), entry Nc1nc2cc(-c3ccc4ncc(C(=O)NCCN5CCCC5)n4c3)ccc2o1
< 1 µM

And for C[C@H]1CN(c2cnc3ccc(-c4ccc5oc(N)nc5c4)cc3n2)CCN1C ?
< 10 µM

And for C[C@@H]1CN(C(=O)C2CN(c3cnc4ccc(-c5ccc6oc(N)nc6c5)cc4n3)C2)CCN1 ?
< 1 µM

And for CC(C)[C@@H](N)C(=O)N1CCN(c2cnc3ccc(-c4ccc5oc(N)nc5c4)cc3n2)CC1 ?
< 1 µM

And for CNC(=O)C1CN(c2cnc3ccc(-c4ccc5oc(N)nc5c4)cc3n2)C1 ?
< 10 µM

And for CS(=O)(=O)CCN1CCN(C(=O)c2cnc3ccc(-c4ccc5oc(N)nc5c4)cn23)CC1 ?
< 10 µM

And for CN1CCN(C2CCN(c3cnc4ccc(-c5ccc6oc(N)nc6c5)cc4n3)CC2)CC1 ?
< 0.1 µM

And for CC(=O)N1CCC(Nc2ncnc3ccc(-c4ccc5oc(N)nc5c4)nc23)CC1 ?
< 0.1 µM
